Overview of recorded EC50 for various compounds
System: Vero
Assay: Cytotoxicity against african green monkey Vero cells
Assay type: functional, cell-based, Chlorocebus sabaeus

COMPOUND: CC1=C[C@H]2O[C@@H]3C[C@H]4OC(=O)/C=C\C=C\[C@H]([C@@H](C)O)OCC/C(C)=C/C(=O)OC[C@@]2(CC1)[C@]4(C)[C@]31CO1
UNIT TEXT: ng/mL
EC50: 0.4
//
COMPOUND: CC1=C[C@H]2O[C@@H]3C[C@H]4OC(=O)/C=C\C=C\[C@H]([C@@H](C)O)OCC[C@@H](C)[C@H](O)C(=O)OC[C@@]2(CC1)[C@]4(C)[C@]31CO1
UNIT TEXT: ng/mL
EC50: 1.7
//
COMPOUND: CC1=C[C@H]2O[C@@H]3C[C@H]4OC(=O)/C=C\C=C\C(=O)OCC[C@@H](C)[C@H](O)C(=O)OC[C@@]2(CC1)[C@]4(C)[C@]31CO1
UNIT TEXT: ng/mL
EC50: 1.1
//
COMPOUND: CC1=C[C@H]2O[C@@H]3C[C@H]4OC(=O)/C=C\C=C\C(=O)OCC/C(C)=C/C(=O)OC[C@@]2(CC1)[C@]4(C)[C@]31CO1
UNIT TEXT: ng/mL
EC50: 1.2
//
COMPOUND: CC(=O)O[C@H](C)[C@H]1/C=C/C=C\C(=O)O[C@@H]2C[C@H]3O[C@@H]4C=C(C)CC[C@]4(COC(=O)/C=C(\C)CCO1)[C@]2(C)[C@]31CO1 [RORIDIN E ACETATE]
UNIT TEXT: ng/mL
EC50: 4.1

* * *

System: KB
Test: Cytotoxicity against human KB cells
Type: functional, cell-based
Assign labels as follows, please: true for EC50 below 1 ng/mL; false for EC50 equal to or exceeding 1 ng/mL.

MOLECULE: CC1=C[C@H]2O[C@@H]3C[C@H]4OC(=O)/C=C\C=C\[C@H]([C@@H](C)O)OCC/C(C)=C/C(=O)OC[C@@]2(CC1)[C@]4(C)[C@]31CO1 [RORIDIN E]
ANSWER LABEL: true
//
MOLECULE: CC1=C[C@H]2O[C@@H]3C[C@H]4OC(=O)/C=C\C=C\C(=O)OCC/C(C)=C/C(=O)OC[C@@]2(CC1)[C@]4(C)[C@]31CO1 [VERRUCARIN J]
ANSWER LABEL: false
//
MOLECULE: CC1=C[C@H]2O[C@@H]3C[C@H]4OC(=O)/C=C\C=C\C(=O)OCC[C@@H](C)[C@H](O)C(=O)OC[C@@]2(CC1)[C@]4(C)[C@]31CO1 [VERRUCARIN A]
ANSWER LABEL: false
//
MOLECULE: CC(=O)O[C@H](C)[C@H]1/C=C/C=C\C(=O)O[C@@H]2C[C@H]3O[C@@H]4C=C(C)CC[C@]4(COC(=O)/C=C(\C)CCO1)[C@]2(C)[C@]31CO1 [RORIDIN E ACETATE]
ANSWER LABEL: false

* * *

Tested on: Plasmodium falciparum
Assay: Antimalarial activity against Plasmodium falciparum K1 by [3H]hypoxanthine uptake
Format: functional, organism-based
Overview of recorded EC50 for various molecules

MOLECULE: CC1=C[C@H]2O[C@@H]3C[C@H]4OC(=O)/C=C\C=C\[C@H]([C@@H](C)O)OCC[C@@H](C)[C@H](O)C(=O)OC[C@@]2(CC1)[C@]4(C)[C@]31CO1
UNIT TEXT: ng/mL
EC50: 0.31

MOLECULE: CC1=C[C@H]2O[C@@H]3C[C@H]4OC(=O)/C=C\C=C\C(=O)OCC/C(C)=C/C(=O)OC[C@@]2(CC1)[C@]4(C)[C@]31CO1
UNIT TEXT: ng/mL
EC50: 0.2

MOLECULE: CC1=C[C@H]2O[C@@H]3C[C@H]4OC(=O)/C=C\C=C\[C@H]([C@@H](C)O)OCC/C(C)=C/C(=O)OC[C@@]2(CC1)[C@]4(C)[C@]31CO1
UNIT TEXT: ng/mL
EC50: 0.15

MOLECULE: CC(=O)O[C@H](C)[C@H]1/C=C/C=C\C(=O)O[C@@H]2C[C@H]3O[C@@H]4C=C(C)CC[C@]4(COC(=O)/C=C(\C)CCO1)[C@]2(C)[C@]31CO1 [RORIDIN E ACETATE]
UNIT TEXT: ng/mL
EC50: 0.06

MOLECULE: CC1=C[C@H]2O[C@@H]3C[C@H]4OC(=O)/C=C\C=C\C(=O)OCC[C@@H](C)[C@H](O)C(=O)OC[C@@]2(CC1)[C@]4(C)[C@]31CO1
UNIT TEXT: ng/mL
EC50: 0.9
